The following molecules each carry a recorded IC50 for VEGF-2 (Homo sapiens).

{"columns": ["Molecule", "IC50 / nM"],
 "data": [
  ["N#Cc1ccc(-c2cn(C3CC(CN)C3)c3ncnc(N)c23)cc1N (centres unmarked)", 610],
  ["Nc1ncnc2c1c(-c1cccc(O)c1)cn2C1CC(CN2CCCC2)C1 (centres unmarked)", 180],
  ["NCC1CC(n2cc(-c3ccc4[nH]ccc4c3)c3c(N)ncnc32)C1 (centres unmarked)", 10],
  ["NCC1CC(n2cc(-c3cc4ccccc4o3)c3c(N)ncnc32)C1 (centres unmarked)", 160],
  ["NCC1CC(n2cc(-c3cccc(NCc4ccccc4)c3)c3c(N)ncnc32)C1 (centres unmarked)", 390],
  ["NCC1CC(n2cc(-c3cccc4occc34)c3c(N)ncnc32)C1 (centres unmarked)", 1320],
  ["NCC1CC(n2cc(-c3ccsc3)c3c(N)ncnc32)C1 (centres unmarked)", 1800],
  ["NCC1CC(n2cc(-c3ccc4occc4c3)c3c(N)ncnc32)C1 (centres unmarked)", 290],
  ["NCC1CC(n2cc(-c3ccc4ccn(Cc5ccccc5)c4c3)c3c(N)ncnc32)C1 (centres unmarked)", 190],
  ["NCC1CC(n2cc(-c3cccs3)c3c(N)ncnc32)C1 (centres unmarked)", 1200],
  ["CCCCOc1cccc(-c2cn(C3CC(CN)C3)c3ncnc(N)c23)c1 (centres unmarked)", 9100]
]}

----------
Each record here notes measured melting point.
Where a name gives a salt, the structure may show the parent alone.
Observation Type: melting point

{"columns": ["Molecule", "Observation Type", "Result"],
 "data": [
  ["NCC1CC(n2cc(-c3ccc4c(c3)n(Cc3ccccc3)c(=O)n4Cc3ccccc3)c3c(N)ncnc32)C1 (centres unmarked)", "melting point", "72.5 to 74 °C"],
  ["CS(=O)(=O)Nc1cccc(-c2cn(C3CC(CN)C3)c3ncnc(N)c23)c1 (centres unmarked)", "melting point", "82 to 84 °C"],
  ["Nc1ncnc2c1c(-c1ccc3occc3c1)cn2C1CC(CNC(=O)C(F)(F)F)C1 (centres unmarked)", "melting point", "92 to 93.5 °C"],
  ["NCC1CC(n2cc(-c3ccc4[nH]ccc4c3)c3c(N)ncnc32)C1 (centres unmarked)", "melting point", "142 to 144 °C"],
  ["NCC1CC(n2cc(-c3ccco3)c3c(N)ncnc32)C1 (centres unmarked) (as salt: TFA)", "melting point", "207.5 to 209 °C"],
  ["NCC1CC(n2cc(-c3ccncc3)c3c(N)ncnc32)C1 (centres unmarked) (as salt: TFA)", "melting point", "> 195 °C (dec.)"],
  ["NCC1CC(n2cc(-c3ccc4c(c3)OCCO4)c3c(N)ncnc32)C1 (centres unmarked)", "melting point", "324 to 325.5 °C"],
  ["NCC1CC(n2cc(-c3cc4ccccc4o3)c3c(N)ncnc32)C1 (centres unmarked) (as salt: TFA)", "melting point", "202.5 to 204.5 °C"],
  ["CC(C)c1cccc(-c2cn(C3CC(CN)C3)c3ncnc(N)c23)c1 (centres unmarked)", "melting point", "93 to 94.5 °C"],
  ["NCC1CC(n2cc(-c3cccc([N+](=O)[O-])c3)c3c(N)ncnc32)C1 (centres unmarked)", "melting point", "53 to 55 °C"],
  ["NCC1CC(n2cc(-c3ccsc3)c3c(N)ncnc32)C1 (centres unmarked)", "melting point", "109 to 111 °C"],
  ["NCC1CC(n2cc(-c3ccc(N)cc3)c3c(N)ncnc32)C1 (centres unmarked)", "melting point", "319.5 to 321 °C (dec.)"],
  ["Nc1ncnc2c1c(-c1cccc(O)c1)cn2C1CC(CN2CCCC2)C1 (centres unmarked)", "melting point", "193 to 194 °C"],
  ["NCC1CC(n2cc(-c3ccc4occc4c3)c3c(N)ncnc32)C1 (centres unmarked)", "melting point", "156 to 159 °C"],
  ["C[Si](C)(C)COc1cccc(-c2cn(C3CC(CN)C3)c3ncnc(N)c23)c1 (centres unmarked) (as salt: TFA)", "melting point", "83 to 84 °C"],
  ["NCC1CC(n2cc(-c3cccc(OC(F)(F)F)c3)c3c(N)ncnc32)C1 (centres unmarked)", "melting point", "88 to 90 °C"],
  ["N#Cc1cccc(-c2cn(C3CC(CN)C3)c3ncnc(N)c23)c1 (centres unmarked) (as salt: TFA)", "melting point", "186.5 to 189 °C"]
]}

Where do the numbers come from? From patent US20100160356A1.
